Target: Glucocorticoid receptor (Homo sapiens)
Assay: GR-GFP Redistribution (AID 450)
Settings: U2OS GR-GFP nuclear translocation, laser cytometry, 2 h; series mostly up to 20.6 µM
The source made the active and inactive calls.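 The calls were made as follows: active = compounds whose dose series gives a full or clear partial fitted curve of increased nuclear translocation; inconclusive = weak partial curve or effect only at the top dose; inactive = no dose-dependent translocation response.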
Labels: active, inactive

# Molecule, Target Entity, Classification
data = [
    ("Cc1ccc(C2CC(c3cccs3)n3nc(N)nc3N2)cc1 (stereo not drawn)", "Glucocorticoid receptor (Homo sapiens)", "inactive"),
    ("COC(=O)CCc1c(C)[nH]c(=S)[nH]c1=O", "Glucocorticoid receptor (Homo sapiens)", "inactive"),
    ("O=C(c1ccc(F)cc1)N1CCC(N2CCCCCC2)CC1", "Glucocorticoid receptor (Homo sapiens)", "inactive"),
    ("Oc1oc(-c2ccccc2)nc1C=NCc1ccncc1", "Glucocorticoid receptor (Homo sapiens)", "inactive"),
    ("Cn1c2c(c(=O)n(C)c1=O)C(NC(=O)c1cccs1)(C(F)(F)F)C(=O)N2 (stereo not drawn)", "Glucocorticoid receptor (Homo sapiens)", "inactive"),
    ("CNc1ccccc1-c1nc2ccccc2n(C)c1=O", "Glucocorticoid receptor (Homo sapiens)", "inactive"),
    ("CC(=O)[C@@]1(O)CC[C@H]2[C@@H]3CCC4=CC(=O)CC[C@]4(C)[C@H]3[C@@H](O)C[C@@]21C", "Glucocorticoid receptor (Homo sapiens)", "active"),
    ("CSc1nc(N)nc(SCC(=O)CC(=O)OC(C)C)c1C#N", "Glucocorticoid receptor (Homo sapiens)", "inactive"),
    ("CCOCCN(C(=O)COC)c1cccc(OC)c1", "Glucocorticoid receptor (Homo sapiens)", "inactive"),
    ("Cc1cc(=O)oc(C)c1C(=O)NCCc1ccccc1", "Glucocorticoid receptor (Homo sapiens)", "inactive"),
    ("CC1(C)Cc2c(C#N)c(N3CCOCC3)nc(Cc3ccccc3)c2CO1", "Glucocorticoid receptor (Homo sapiens)", "inactive"),
    ("CCC(C(=O)Nc1ncn[nH]1)(C(F)(F)F)C(F)(F)F", "Glucocorticoid receptor (Homo sapiens)", "inactive"),
    ("O=C(COc1ccc(-c2nnc(N3CCCCC3)c3ccccc23)cc1)N1CCCCC1", "Glucocorticoid receptor (Homo sapiens)", "inactive"),
    ("CCC(=O)OC1=C2C(=Nc3c(c(=O)n(C)c(=O)n3C)C2c2ccccc2)c2ccccc21 (stereo not drawn)", "Glucocorticoid receptor (Homo sapiens)", "inactive"),
    ("CCCCC(CCC(=O)Nc1ccc(C(=O)OC)cc1)C(=O)O (stereo not drawn)", "Glucocorticoid receptor (Homo sapiens)", "inactive"),
    ("CCOc1ccc(-c2nnc3sc(-c4c(OC)cccc4OC)nn23)cc1", "Glucocorticoid receptor (Homo sapiens)", "inactive"),
    ("CCSc1nnc(NC(=O)C(C)(C(F)(F)F)C(F)(F)F)s1", "Glucocorticoid receptor (Homo sapiens)", "inactive"),
    ("COc1ccc(-c2nnc3sc(-c4c(OC)cccc4OC)nn23)cc1", "Glucocorticoid receptor (Homo sapiens)", "inactive"),
]

###

Assay: AP1 Signaling Pathway (AID 357);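 also: ME-180 reporter cells stimulated with EGF at its EC50 level; % is scaled to controls: 0 for no effect and ±100 for the full control effect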
Conditions: ME-180 AP-1-bla reporter, EGF-induced, beta-lactamase ratio, 5 h; at 17.2 µM (top of the series) unless noted
Results filed as inconclusive are left out. Activity calls are given as the source filed them. Calls follow the shape of the dose curve; as a rule, active = well fitted curve in either direction with a large enough effect (not every such curve was filed as active); inconclusive = small, poorly fitted or top-dose-only effect, or another doubt; inactive = flat fitted curve, though single readings scatter.
Measurement Type: activity change, negative = inhibition

# Compound, Observed Result
measured = [
    ("Cn1c(=O)oc2cc(C(=O)c3ccccc3)ccc21", "-10.8% (inactive)"),
    ("CCOc1ccc(NC(=O)c2nn(C)cc2Br)cc1", "1.01% (inactive)"),
    ("C=CCn1c(SCC#N)nc2c(c1=O)C(C)(C)Cc1ccccc1-2", "-2.85% (inactive)"),
    ("COC(=O)CNC(=O)c1c(C)cc(=O)oc1C", "21.5% (inactive)"),
    ("Cc1cccc(OCc2nc(C)cc(=O)[nH]2)c1", "9.24% (inactive)"),
    ("CC(Sc1nc(N2CCCCC2)c2c(c1C#N)CCCC2)C(=O)O (configuration not stated)", "-9.35% (inactive)"),
    ("Cc1c2c([n+]3n1CCC3)CC(C)(C)CC2=O", "8.99% (inactive)"),
]

###

Experiment: NFAT Signaling Pathway (AID 444);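 also: carbachol stimulus at about its EC50 of 1 µM final; % is scaled to controls: 0 for no effect and ±100 for the full control effect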
Conditions: Jurkat NFAT-bla M1, carbachol, beta-lactamase ratio, 5 h; at 17.2 µM (top of the series) unless noted
Records with an inconclusive call do not appear.

# Compound, activity change, negative = inhibition, %
data = [
    ("Cc1c(CCC#N)c(N2CCCCC2)n2c(nc3ccccc32)c1C#N", -11.4),
    ("CCOc1ccc(C2C(C(=O)c3ccc(C)o3)=C(O)C(=O)N2CCN2CCOCC2)cc1OC (stereo not given)", 4.63),
    ("COc1cc(C)nc(Oc2ccc(=O)[nH]n2)n1", -26.6),
    ("O=C(Oc1cccnc1)c1ccco1", 5.81),
    ("Clc1ccc(-n2ncc3c(NCc4ccccn4)ncnc32)cc1", -18.5),
    ("Cc1occc1C(=O)OCC(=O)Nc1ccc(F)cc1", 1.22),
    ("COc1cccc(COc2nc3c(c(=O)n(C)c(=O)n3C)n2C)c1", 12.8),
    ("c1ccc2c(c1)[nH]c1c(N3CCN(C4CCCCC4)CC3)ncnc12", -22.7),
    ("CC(=O)C1=C(O)C(=O)N(c2ccc(S(N)(=O)=O)cc2)C1c1ccccc1F (stereo not given)", 5.76),
    ("COC(=O)c1cc(OC)c(OC)cc1N", 0.905),
]

###

Assay: Stat Signaling Pathway (AID 446);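 also: ME-180 cervical cancer cells given 40 pM IL-6 alongside compound; SIE-controlled beta-lactamase reporter measured as 460/530 nm FRET emission ratio; % is scaled to controls: 0 for no effect and ±100 for the full control effect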
Details: ME-180 (cervical carcinoma) SIE beta-lactamase reporter, IL-6 stimulated, 5 h; at 17.2 µM (top of the series) unless noted
Results filed as inconclusive are left out.
activity, negative = inhibition values by entry
Measurement Type: activity, negative = inhibition (%)

# Compound, Measurement Type, Observed Result
rows = [
    ("COc1cc(C(=O)NCC(=O)n2nc(C)cc2C)cc(OC)c1OC", "activity, negative = inhibition", 0.715),
    ("Cc1cc(=O)oc(C)c1C(=O)NC1CC(C)(C)NC(C)(C)C1", "activity, negative = inhibition", 0.837),
    ("CC(=O)C1=C(O)C(=O)N(c2cccc(C(=O)O)c2)C1c1ccccc1F (stereo not drawn)", "activity, negative = inhibition", 10.6),
    ("CCOc1cc(CN2CCOCC2)cc(C(C)=O)c1", "activity, negative = inhibition", 1.95),
    ("Nc1nc(NC(=O)Cc2ccccc2)nn1-c1ccccc1", "activity, negative = inhibition", 4.24),
    ("O=C1C2CC=C(Cl)CC2C(=O)N1CNc1ccccn1 (stereo not drawn)", "activity, negative = inhibition", 7.34),
    ("COc1cc(-c2cc(C(F)(F)F)n3ncc(C(=O)O)c3n2)cc(OC)c1OC", "activity, negative = inhibition", 1.42),
    ("CCn1c(SCC(=O)NC2CCCCC2C)nnc1-c1ccc(OC)cc1 (stereo not drawn)", "activity, negative = inhibition", -7.61),
    ("COc1ccc(CC(=O)Nc2cccc(-c3nnc(-c4ccco4)o3)c2)cc1", "activity, negative = inhibition", -27.7),
    ("CCOC(=O)C1CCCN(c2nc3ccccc3nc2C(C#N)C(=O)OCCOC)C1 (stereo not drawn)", "activity, negative = inhibition", -2.06),
    ("Cc1c(CCC#N)c(N2CCN(C3CCCCC3)CC2)n2c(nc3ccccc32)c1C#N", "activity, negative = inhibition", 9.87),
    ("CC(C(=O)NC(=O)NCc1ccccc1)N1C(=O)c2ccccc2C1=O (stereo not drawn)", "activity, negative = inhibition", 14.7),
    ("CCCCCCOC(=O)CCn1[nH]c(=O)c2ccccc2c1=O", "activity, negative = inhibition", -5.61),
    ("CC1(C)CCN(Cc2ccccc2)C1CC#N (stereo not drawn)", "activity, negative = inhibition", 6.87),
    ("Cc1c(-c2cccs2)[n+](=O)c2c(n1[O-])CCCC2", "activity, negative = inhibition", 6.22),
    ("CSc1nc2[nH]c3c(c2c2nncn12)CC(C)(C)OC3", "activity, negative = inhibition", 7.21),
    ("Cc1cccc(-c2nnc3n2N=C(c2ccccc2)CS3)c1", "activity, negative = inhibition", -6.13),
    ("Cc1ccc(-c2nnc(OCCN3CCOCC3)c3ccccc23)cc1", "activity, negative = inhibition", -1.56),
    ("CC(C)Cc1nc(N2CCN(C(=O)C(C)C)CC2)c(C#N)c2c1CCC2", "activity, negative = inhibition", 7.39),
    ("O=c1/c(=C\\c2cccn2-c2ccccc2)sc2nc3ccccc3n12", "activity, negative = inhibition", 14.8),
    ("Clc1nc(-c2n[nH]nc2Cl)n[nH]1", "activity, negative = inhibition", 5.38),
    ("CCOC(=O)c1[nH]c2cc3c(cc2c1NC(=O)CN1CC(C)CC(C)C1)OCO3 (stereo not drawn)", "activity, negative = inhibition", -2.27),
    ("COC(=O)c1c(C)noc1-c1cc(C)on1", "activity, negative = inhibition", 8.94),
    ("Cc1[nH]c2ccc3c(ncn3CCC#N)c2c1C", "activity, negative = inhibition", -5.09),
    ("CC1=C(C(=O)Nc2ccccc2)C(c2ccncc2)C(C#N)=C(SCC(=O)NC(C)C)N1 (stereo not drawn)", "activity, negative = inhibition", -4.3),
    ("CCOCCn1c(SCc2c(F)cccc2Cl)nc2c1c(=O)[nH]c(=O)n2C", "activity, negative = inhibition", -2.5),
    ("CCOc1ccc(-c2nnc3sc(-c4c(OC)cccc4OC)nn23)cc1", "activity, negative = inhibition", 8.95),
    ("CCC1SC(N)=NC1=O (stereo not drawn)", "activity, negative = inhibition", -1.83),
]
